Tested on: HT-1197 (Bladder Carcinoma)
Test: Bliss excess, mean over the matrix (fraction); higher = more synergy

compound	Bliss excess
CN(CCO)CC[C@H](CSc1ccccc1)Nc1ccc(S(=O)(=O)NC(=O)c2ccc(N3CCC([C@@H](O)c4ccccc4-c4ccc(Cl)cc4)CC3)cc2)cc1S(=O)(=O)C(F)(F)F [AZD4320] + C=CCn1c(=O)c2cnc(Nc3ccc(N4CCN(C)CC4)cc3)nc2n1-c1cccc(C(C)(C)O)n1 [AZD1775] (first compound max 1 µM, partner max 1 µM)	0.0626
CC(=O)c1c(C)c2cnc(Nc3ccc(N4CCNCC4)cn3)nc2n(C2CCCC2)c1=O [Palbociclib] + CC1(C)CCC(CN2CCN(c3ccc(C(=O)NS(=O)(=O)c4ccc(NCC5CCOCC5)c([N+](=O)[O-])c4)c(Oc4cnc5[nH]ccc5c4)c3)CC2)=C(c2ccc(Cl)cc2)C1 [Venetoclax] (first compound max 10 µM, 7x7, partner max 1 µM)	-0.042
COc1cccc(OCCCN)c1-c1cc(Nc2cnc(C#N)cn2)n[nH]1 [Prexasertib] + Cc1cc2ncnn2cc1Nc1ncc2c(n1)n(C1CCOCC1)c(=O)n2C [AZD7648] (first compound max 1 µM, 7x7, partner max 10 µM)	-0.0206

----------
Tested on: MG-63 (Osteosarcoma)
Assay: Bliss excess, mean over the matrix (fraction); higher = more synergy
// thresholds for Bliss excess classes: A: < -0.07; B: ≥ -0.07 and < -0.005; C: ≥ -0.005

molecule	experimental.target	qualitative.label
C[C@@H](c1ccc2nccn2c1)n1nnc2ncc(-c3cnn(C)c3)nc21 [Savolitinib] + Cc1c2c(nn1C)CSCc1cc(n(C)n1)CSc1cc(c3ccccc3c1)OCCCc1c(C(=O)O)n(C)c3c-2c(Cl)ccc13 [AZD5991] (first compound max 1 µM, 7x7, partner max 1 µM)	MG-63 (Osteosarcoma)	C
Cc1c2c(nn1C)CSCc1cc(n(C)n1)CSc1cc(c3ccccc3c1)OCCCc1c(C(=O)O)n(C)c3c-2c(Cl)ccc13 [AZD5991] + CCN(CCO)CCCOc1ccc2c(Nc3cc(CC(=O)Nc4cccc(F)c4)[nH]n3)ncnc2c1 [AZD2811] (first compound max 1 µM, 7x7, partner max 1 µM)	MG-63 (Osteosarcoma)	C
CC1(C)CCC(CN2CCN(c3ccc(C(=O)NS(=O)(=O)c4ccc(NCC5CCOCC5)c([N+](=O)[O-])c4)c(Oc4cnc5[nH]ccc5c4)c3)CC2)=C(c2ccc(Cl)cc2)C1 [Venetoclax] + C[C@@H]1COCCN1C2=NC(=NC(=C2)C3(CC3)[S@](=N)(=O)C)C4=C5C=CNC5=NC=C4 [AZD6738] (first compound max 1 µM, 7x7, partner max 10 µM)	MG-63 (Osteosarcoma)	A
Cc1cc2ncnn2cc1Nc1ncc2c(n1)n(C1CCOCC1)c(=O)n2C [AZD7648] + C=CCn1c(=O)c2cnc(Nc3ccc(N4CCN(C)CC4)cc3)nc2n1-c1cccc(C(C)(C)O)n1 [AZD1775] (first compound max 10 µM, partner max 1 µM)	MG-63 (Osteosarcoma)	C
Cc1c2c(nn1C)CSCc1cc(n(C)n1)CSc1cc(c3ccccc3c1)OCCCc1c(C(=O)O)n(C)c3c-2c(Cl)ccc13 [AZD5991] + C1CN(CCC1(C(=O)N[C@@H](CCO)C2=CC=C(C=C2)Cl)N)C3=NC=NC4=C3C=CN4 [Capivasertib] (first compound max 1 µM, 7x7, partner max 3 µM)	MG-63 (Osteosarcoma)	B
O=C(c1cc(Cc2n[nH]c(=O)c3ccccc23)ccc1F)N1CCN(C(=O)C2CC2)CC1 [Olaparib] + CC1(C)CCC(CN2CCN(c3ccc(C(=O)NS(=O)(=O)c4ccc(NCC5CCOCC5)c([N+](=O)[O-])c4)c(Oc4cnc5[nH]ccc5c4)c3)CC2)=C(c2ccc(Cl)cc2)C1 [Venetoclax] (first compound max 10 µM, 7x7, partner max 1 µM)	MG-63 (Osteosarcoma)	C
CN(CCO)CC[C@H](CSc1ccccc1)Nc1ccc(S(=O)(=O)NC(=O)c2ccc(N3CCC([C@@H](O)c4ccccc4-c4ccc(Cl)cc4)CC3)cc2)cc1S(=O)(=O)C(F)(F)F [AZD4320] + Cc1cc2ncnn2cc1Nc1ncc2c(n1)n(C1CCOCC1)c(=O)n2C [AZD7648] (first compound max 1 µM, 7x7, partner max 10 µM)	MG-63 (Osteosarcoma)	B
CN(CCO)CC[C@H](CSc1ccccc1)Nc1ccc(S(=O)(=O)NC(=O)c2ccc(N3CCC([C@@H](O)c4ccccc4-c4ccc(Cl)cc4)CC3)cc2)cc1S(=O)(=O)C(F)(F)F [AZD4320] + C1CN(CCC1(C(=O)N[C@@H](CCO)C2=CC=C(C=C2)Cl)N)C3=NC=NC4=C3C=CN4 [Capivasertib] (first compound max 1 µM, 7x7, partner max 3 µM)	MG-63 (Osteosarcoma)	A
CCN(CCO)CCCOc1ccc2c(Nc3cc(CC(=O)Nc4cccc(F)c4)[nH]n3)ncnc2c1 [AZD2811] + C=CCn1c(=O)c2cnc(Nc3ccc(N4CCN(C)CC4)cc3)nc2n1-c1cccc(C(C)(C)O)n1 [AZD1775] (first compound max 1 µM, partner max 1 µM)	MG-63 (Osteosarcoma)	B
O=C(c1cc(Cc2n[nH]c(=O)c3ccccc23)ccc1F)N1CCN(C(=O)C2CC2)CC1 [Olaparib] + CN(CC[C@H](CSC1=CC=CC=C1)NC2=C(C=C(C=C2)S(=O)(=O)NC(=O)C3=CC=C(C=C3)N4CCC(CC4)[C@H](C5=CC=CC=C5C6=CC=C(C=C6)Cl)O)S(=O)(=O)C(F)(F)F)CCO [AZD4320] (first compound max 10 µM, 7x7, partner max 1 µM)	MG-63 (Osteosarcoma)	B
Cc1nc(-c2cn3c(n2)-c2ccc(-c4cnn(C(C)(C)C(N)=O)c4)cc2OCC3)n(C(C)C)n1 [Taselisib] + O=C(Nc1ccc2[nH]nc(-c3ccncc3)c2c1)[C@@H]1CCN(CC(=O)N2CCN(c3ccc(-c4ncccn4)cc3)CC2)C1 [SCH772984] (first compound max 10 µM, 7x7, partner max 5 µM)	MG-63 (Osteosarcoma)	A
CS(=O)(=O)CCNCc1ccc(-c2ccc3ncnc(Nc4ccc(OCc5cccc(F)c5)c(Cl)c4)c3c2)o1 [Lapatinib] + Cn1cnc2c(F)c(Nc3ccc(Br)cc3Cl)c(C(=O)NOCCO)cc21 [Selumetinib] (first compound max 10 µM, 7x7, partner max 10 µM)	MG-63 (Osteosarcoma)	A
Cc1c2c(nn1C)CSCc1cc(n(C)n1)CSc1cc(c3ccccc3c1)OCCCc1c(C(=O)O)n(C)c3c-2c(Cl)ccc13 [AZD5991] + Cc1cc2ncnn2cc1Nc1ncc2c(n1)n(C1CCOCC1)c(=O)n2C [AZD7648] (first compound max 1 µM, 7x7, partner max 10 µM)	MG-63 (Osteosarcoma)	B

----------
Attribute: combination Emax
Tested on: JURL-MK1 (Chronic Myelogenous Leukemia)
Test: combination Emax (second highest fraction inhibited in the dose matrix, 72 h); higher = more inhibition; extreme values may be limits of the assay

compound	combination Emax
COc1nnc2ccc(N3CCC(c4ccc(OCCN5CCN(C)C(=O)[C@H]5C)cc4)CC3)nn12 [AZD5153] + CCN(CCO)CCCOc1ccc2c(Nc3cc(CC(=O)Nc4cccc(F)c4)[nH]n3)ncnc2c1 [AZD2811] (first compound max 1 µM, 7x7, partner max 1 µM)	0.898
C[C@@H](c1ccc2nccn2c1)n1nnc2ncc(-c3cnn(C)c3)nc21 [Savolitinib] + CC1(C)CCC(CN2CCN(c3ccc(C(=O)NS(=O)(=O)c4ccc(NCC5CCOCC5)c([N+](=O)[O-])c4)c(Oc4cnc5[nH]ccc5c4)c3)CC2)=C(c2ccc(Cl)cc2)C1 [Venetoclax] (first compound max 1 µM, 7x7, partner max 1 µM)	0.127
COc1nnc2ccc(N3CCC(c4ccc(OCCN5CCN(C)C(=O)[C@H]5C)cc4)CC3)nn12 [AZD5153] + CN(CC[C@H](CSC1=CC=CC=C1)NC2=C(C=C(C=C2)S(=O)(=O)NC(=O)C3=CC=C(C=C3)N4CCC(CC4)[C@H](C5=CC=CC=C5C6=CC=C(C=C6)Cl)O)S(=O)(=O)C(F)(F)F)CCO [AZD4320] (first compound max 1 µM, 7x7, partner max 1 µM)	0.994

----------
Test system: BT-474 (Breast Carcinoma)
Experiment: combination Emax (second highest fraction inhibited in the dose matrix, 72 h); higher = more inhibition; extreme values may be limits of the assay

compound	combination Emax
COc1cc2c(cc1OCCCCCOc1cc3c(cc1OC)C(=O)N1C=C(C)C[C@H]1C=N3)N=C[C@@H]1CC(C)=CN1C2=O [SG3199] + O=C(c1cc(Cc2n[nH]c(=O)c3ccccc23)ccc1F)N1CCN(C(=O)C2CC2)CC1 [Olaparib] (first compound max 0.001 µM, 7x7, partner max 10 µM)	0.049
Cc1cc2ncnn2cc1Nc1ncc2c(n1)n(C1CCOCC1)c(=O)n2C [AZD7648] + C[C@@H]1COCCN1C2=NC(=NC(=C2)C3(CC3)[S@](=N)(=O)C)C4=C5C=CNC5=NC=C4 [AZD6738] (first compound max 10 µM, 7x7, partner max 10 µM)	0.24
CN(CCO)CC[C@H](CSc1ccccc1)Nc1ccc(S(=O)(=O)NC(=O)c2ccc(N3CCC([C@@H](O)c4ccccc4-c4ccc(Cl)cc4)CC3)cc2)cc1S(=O)(=O)C(F)(F)F [AZD4320] + C=CCn1c(=O)c2cnc(Nc3ccc(N4CCN(C)CC4)cc3)nc2n1-c1cccc(C(C)(C)O)n1 [AZD1775] (first compound max 1 µM, partner max 1 µM)	0.526
